test: qHTS assay to identify small molecule agonists of the estrogen receptor beta (ER-beta) signaling pathway - cell viability counter screen (AID 1259380); settings: ER-beta-bla HEK293T viability, CellTiter-Glo luminescence, 16 h; series mostly up to 92.4 µM; note: nearly all actives have a fitted effect of over 30% in size
Inconclusive results are not listed. Activity calls are given as the source filed them. Calls come from the whole dose curve; as a rule, active = well fitted cell-killing curve with a large enough effect in the repeat runs; inconclusive = weak or mixed curves, or effect the other way; inactive = flat fitted curve, though single readings scatter.
Classes used: active, inactive

1. CCCCC[C@H](O)/C=C/[C@H]1[C@H](O)CC(=O)[C@@H]1C/C=C\CCCC(=O)O    inactive
2. Cc1c(C2(c3cc(Br)c(O)c(Br)c3C)OS(=O)(=O)c3ccccc32)cc(Br)c(O)c1Br    active
3. CO[C@@H]1[C@@H](OC)[C@H](C)[C@@](O)(CC(=O)O)O[C@H]1[C@H](C)[C@H]1O[C@@]2(CC[C@@](C)([C@H]3CC[C@@](C)([C@@H]4O[C@@H]([C@H]5O[C@](C)(O)[C@H](C)C[C@@H]5C)C[C@@H]4OC4C[C@H](OC)[C@@H](OC)[C@H](C)O4)O3)O2)C[C@H](O)[C@H]1C (stereo partly specified)    active
4. O=c1[nH][nH]c(=O)c2cc([N+](=O)[O-])ccc12    inactive
5. COc1ccc(-c2cc(C(F)F)nn2-c2ccc(S(N)(=O)=O)cc2)cc1F    inactive
6. O[C@@H](CNC[C@H](O)[C@H]1CCc2cc(F)ccc2O1)[C@@H]1CCc2cc(F)ccc2O1    active
7. CCCCCCCCCCCCCOS(=O)(=O)O    active
8. Cc1cccc(C)c1NC(=O)c1cc(S(N)(=O)=O)c(Cl)cc1O    inactive
9. CC(=O)OCC1=C(C(=O)O)N2C(=O)[C@@H](NC(=O)CSc3ccncc3)[C@H]2SC1    inactive
10. CCCCC(CC)COS(=O)(=O)O (stereo unspecified)    inactive
11. Cc1c[nH]c2ccccc12    inactive
12. CC(C)N(C)C    inactive
13. CCN(CC)C(=O)/C(C#N)=C/c1cc(O)c(O)c([N+](=O)[O-])c1    inactive
14. CC(=O)N[C@@H](Cc1ccc(O)cc1)C(=O)O    inactive
15. O=C1CC[C@@H](C(=O)O)N1    inactive
16. CC(C(=O)O)c1ccc(C(=O)c2cccs2)cc1 (stereo unspecified)    inactive
17. CCOCCC(=O)OCC    inactive
18. COc1ccc(C)cc1    inactive
19. O=C1[C@@H]2[C@H]3CC[C@H](C3)[C@@H]2C(=O)N1CCCCN1CCN(c2ncccn2)CC1    inactive
20. O=C(C(=O)c1ccco1)c1ccco1    inactive
21. CN=C(N)NC(=O)Nc1c(C)cccc1C    inactive

###

molecular target: Aryl hydrocarbon receptor (Homo sapiens); assay: qHTS assay to identify small molecule that activate the aryl hydrocarbon receptor (AhR) signaling pathway (AID 743085); details: HepG2 AhR-luc (HG2L7.5c1), luciferase, 24 h; series mostly up to 70.3 µM; note: nearly all actives have a fitted effect of over 15% in size;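 for activation: HG2L7.5c1 human HepG2 liver cells with stably integrated DRE-driven firefly reporter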
Records with an inconclusive call do not appear. Active and inactive are the calls of the source. Calls come from the whole dose curve; as a rule, active = well fitted activation curve with a large enough effect in the repeat runs; inconclusive = weak or mixed curves; inactive = no such curve, though single readings can be large or run the other way.
Classes used: label 1 for active, label 0 for inactive

1) CC(C)(C)S    label 0
2) C[C@@H]1C[C@H]2[C@@H]3CCC4=CC(=O)C=C[C@]4(C)[C@@]3(F)[C@@H](O)C[C@]2(C)[C@@]1(O)C(=O)COP(=O)(O)O    label 0
3) O=C(Oc1ccccc1)c1ccc2ccccc2c1O    label 0
4) CC(C(=O)O)c1ccc(C(=O)c2cccs2)cc1 (configuration not stated)    label 0
5) Cc1ccc(N(CCO)CCO)cc1    label 0
6) O=CNNC=O    label 0
7) CC1CCc2nccnc21 (configuration not stated)    label 0
8) CC(=O)OCC(=O)[C@@]1(OC(C)=O)[C@@H](C)C[C@H]2[C@@H]3C[C@H](F)C4=CC(=O)C=C[C@]4(C)[C@@]3(F)[C@@H](O)C[C@@]21C    label 0
9) Cc1c(C2(c3cc(Br)c(O)c(Br)c3C)OS(=O)(=O)c3ccccc32)cc(Br)c(O)c1Br    label 0
10) CNCc1ccc(NC(=O)c2c[nH]c3c2C(=O)CCC3)cc1    label 1
11) CCOC(=O)C(C)O (configuration not stated)    label 0
12) OCC(CO)n1cnc(-c2ccc(F)cc2)c1-c1ccnc(Oc2ccccc2)n1    label 0
13) CC[C@@H](CO)NCCN[C@@H](CC)CO    label 0
14) O=[N+]([O-])C1(Br)COCOC1    label 0
15) C1CCCCC1    label 0
16) CC/C=C\C/C=C\C/C=C\CCCCCCCC(=O)OCC    label 0
17) CC(C)OC(=O)c1ccccc1C(=O)OC(C)C    label 0
18) c1ccc2sc(SSc3nc4ccccc4s3)nc2c1    label 0
19) O=C(c1ccccc1)C1CCC1    label 0
20) O=C(NS(=O)(=O)/C=C/c1ccccc1)c1ccc(F)cc1Cl    label 0
21) Cc1cccc2sc(N)nc12    label 1
22) CN=C(N)NC(=O)Nc1c(C)cccc1C    label 0
23) CNC1CCCN(c2c(F)cc3c(=O)c(C(=O)O)cn(C4CC4)c3c2OC)C1 (configuration not stated)    label 0
24) COc1ccc(C2C(=O)c3ccccc3C2=O)cc1    label 0
25) CC(=O)OCCC1CCCCC1    label 0
26) O=C(O)CCCc1c[nH]c2ccccc12    label 0
27) CCCCC[C@H](O)/C=C/[C@H]1[C@H](O)CC(=O)[C@@H]1C/C=C\CCCC(=O)O    label 0

These entries and their values trace back to PubChem BioAssay (Tox21).
